Organism: Homo sapiens
Assay: Liver toxicity in human assessed as induction of drug-induced liver injury by measuring verified drug-induced liver injury concern status
PROPERTY_LABEL: DILI_Concern

See these solved cases before continuing.
C=C(c1ccc(C(=O)O)cc1)c1cc2c(cc1C)C(C)(C)CCC2(C)C = Most-Dili-Concern
NC(=O)OCC(COC(N)=O)c1ccccc1 [FELBAMATE] = Most-Dili-Concern
C[C@H]1O[C@H](O[C@H]2[C@H](O)[C@@H](O)[C@@H](O[C@H]3[C@H](O)[C@@H](O)C(O)O[C@@H]3CO)O[C@@H]2CO)[C@H](O)[C@@H](O)[C@@H]1N[C@H]1C=C(CO)[C@@H](O)[C@H](O)[C@H]1O (stereo not given in full) = Most-Dili-Concern
CC(C)(C)NC(=O)[C@@H]1C[C@@H]2CCCC[C@@H]2CN1C[C@@H](O)[C@H](Cc1ccccc1)NC(=O)[C@H](CC(N)=O)NC(=O)c1ccc2ccccc2n1 = Less-Dili-Concern
CN1CC[C@]23c4c5ccc(O)c4O[C@H]2C(=O)CC[C@H]3[C@H]1C5 [HYDROMORPHONE] = Ambiguous-Dili-Concern
CN(C/C=C/C#CC(C)(C)C)Cc1cccc2ccccc12 = Most-Dili-Concern
COc1ccc(Cc2nccc3cc(OC)c(OC)cc23)cc1OC = Most-Dili-Concern
O=C(N[C@H](CO)[C@H](O)c1ccc([N+](=O)[O-])cc1)C(Cl)Cl = No-Dili-Concern
CC1=C(C(=O)O)N2C(=O)[C@@H](NC(=O)[C@H](N)c3ccc(O)cc3)[C@H]2SC1 = Less-Dili-Concern
C[C@@H](CN1CC(=O)NC(=O)C1)N1CC(=O)NC(=O)C1 = Ambiguous-Dili-Concern

# next molecule below
Request: Using the record for `C[N+](C)(C)CCOC(=O)CCC(=O)OCC[N+](C)(C)C` , report its DILI_Concern.
Response: No-Dili-Concern

# credit: ChEMBL document CHEMBL4028802
